Tested on: B16-F10
assayRemarks: Antiproliferative activity against mouse B16F10 cells after 48 hrs by MTT assay
Assay type: functional, cell-based
measurementParameters: B16-F10, 48 h
Label yes (1) when IC50 < 3000 nM; otherwise no (0).

molecule: CC(=O)N1N=C(c2ccc3ccccc3c2)OC1c1ccc2ccccc2c1 (stereo not drawn)
systemUnderTest: B16-F10
classLabel: yes (1)
--
molecule: CC(=O)N1N=C(c2ccc3ccccc3c2)OC1c1ccc(F)cc1 (stereo not drawn)
systemUnderTest: B16-F10
classLabel: no (0)
--
molecule: CC(=O)N1N=C(c2ccc3ccccc3c2)OC1c1cccc(Br)c1 (stereo not drawn)
systemUnderTest: B16-F10
classLabel: yes (1)
--
molecule: CC(=O)N1N=C(c2ccc3ccccc3c2)OC1c1ccccc1Cl (stereo not drawn)
systemUnderTest: B16-F10
classLabel: no (0)
--
molecule: CC(=O)N1N=C(c2ccc3ccccc3c2)OC1c1ccccc1 (stereo not drawn)
systemUnderTest: B16-F10
classLabel: yes (1)
--
molecule: COc1ccc(/C=C\c2cc(OC)c(OC)c(OC)c2)cc1O
systemUnderTest: B16-F10
classLabel: yes (1)
